Reference for the values: the supplement of paper PMC10567573

B1: TRIM15 (parent)
chain: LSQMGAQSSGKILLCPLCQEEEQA

- Variants of: B1
- assay.name: protein stability index of a GFP-peptide fusion (GPS, HEK-293T) (PSI 1-6); higher = more stable;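 note: lentivirally expressed fusions sorted by FACS into six bins by GFP to DsRed ratio, PSI derived from sequencing read proportions per bin multiplied by bin number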
- setup.conditions: c terminus: a fixed tail appended
Mark Y for reported protein stability index of 4 or greater; mark N for anything smaller.

Answered examples (3):
# mutation.spec, classification
records = [
    ("L1N", "N"),
    ("Q7I", "N"),
    ("L14T", "Y"),
]

Check if protein stability index >= 4 (inclusive). Item: `L17H`
N

Check if protein stability index >= 4 (inclusive). Item: `Q7D`
N
